measurement-target: Human CD137 ECD (human)
Sequence (chain, as listed by the source limits assumed): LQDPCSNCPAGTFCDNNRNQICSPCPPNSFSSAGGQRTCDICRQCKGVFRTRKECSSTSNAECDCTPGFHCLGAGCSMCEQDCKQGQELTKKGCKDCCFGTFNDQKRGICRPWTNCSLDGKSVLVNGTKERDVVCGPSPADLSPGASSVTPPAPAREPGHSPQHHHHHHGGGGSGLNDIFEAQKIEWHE
test-details: single mutant vs template dBBDu183H
fold change of affinity values, listed per item
The response must be a number in fold with no trailing unit.

binder	uom	fold change of affinity
H183/L072 VH Q50A (antibody, name in Kabat numbering, V domains shown) VH: QVQLVESGGGLVQPGRSLRLSCAASGFTFSNAWMHWVRQAPGKGLEWVAAIKDKGNAYAAYYAPSVKGRFTISRDDSKNSIYLQMNSLKTEDTAVYYCHYVHYASASTVLPAFGVDAWGQGTTVTVSS VL: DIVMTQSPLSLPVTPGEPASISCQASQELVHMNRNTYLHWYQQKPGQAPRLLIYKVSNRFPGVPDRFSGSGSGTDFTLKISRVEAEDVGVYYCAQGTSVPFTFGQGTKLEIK	fold	0

Task: Look at this binder and give its reported fold change of affinity. H183/L072 VH I51P (antibody, name in Kabat numbering, V domains shown) VH: QVQLVESGGGLVQPGRSLRLSCAASGFTFSNAWMHWVRQAPGKGLEWVAQPKDKGNAYAAYYAPSVKGRFTISRDDSKNSIYLQMNSLKTEDTAVYYCHYVHYASASTVLPAFGVDAWGQGTTVTVSS VL: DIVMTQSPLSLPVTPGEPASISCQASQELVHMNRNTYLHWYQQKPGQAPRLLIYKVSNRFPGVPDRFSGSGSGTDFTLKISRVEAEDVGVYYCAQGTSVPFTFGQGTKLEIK
Output: 0
